Catalogue of molecules with associated TGI
Tested on: UACC-257 melanoma
Assay: NCI tumour cell line growth inhibition, 48 h

NCCCN1CCN(CC(=O)O)CCN(CCCN)CCN(CC(=O)O)CC1 :: > 100 µM

Lab note: molecule CCOC(=O)c1[nH]c2ccccc2c1C(=O)C[C@H](NC(=O)C(F)(F)F)C(=O)OC tested on UACC-257 melanoma; recorded TGI was > 100 µM

Record O=S(CCCl)c1c2ccccc2nc2ccccc12 (stereo unspecified) has UACC-257 melanoma TGI equal to > 100 µM

---

Tested on: MDA-N
Experiment: NCI tumour cell line growth inhibition, 48 h
measureName: TGI

// known answers, use as guide
CC(C)n1c2c([n+](C)c1/C=C/c1ccccc1)C(=O)c1ccccc1C2=O :: 0.686 µM
O=c1oc2ccc3ccccc3c2cc1-c1nc2ccccc2o1 :: > 54.4 µM
CCOP(=O)(C=C=C(C)C)OCC :: > 100 µM
O=C(O)CC/C(=N\Nc1nsc2ccccc12)c1ccc(Cl)cc1 :: > 100 µM

Consider the record given below.
Note to self: TGI recorded for C=C1c2nc3ccccc3n2C=C(c2ccccc2)N1c1ccccc1 was > 100 µM
